target or test system: T1, Nluc-IL23R fusion protein (human, UniProt Q5VWK5 22-629)
T1 construct: range 22-629; Stably expressed in HEK293 cells; also called hIL-23R; human IL-23R fused to a Nanoluc luciferase enzyme; not shown: Nanoluc luciferase (Promega N1371 plasmid) at the N-terminus
T1 sequence (looked up): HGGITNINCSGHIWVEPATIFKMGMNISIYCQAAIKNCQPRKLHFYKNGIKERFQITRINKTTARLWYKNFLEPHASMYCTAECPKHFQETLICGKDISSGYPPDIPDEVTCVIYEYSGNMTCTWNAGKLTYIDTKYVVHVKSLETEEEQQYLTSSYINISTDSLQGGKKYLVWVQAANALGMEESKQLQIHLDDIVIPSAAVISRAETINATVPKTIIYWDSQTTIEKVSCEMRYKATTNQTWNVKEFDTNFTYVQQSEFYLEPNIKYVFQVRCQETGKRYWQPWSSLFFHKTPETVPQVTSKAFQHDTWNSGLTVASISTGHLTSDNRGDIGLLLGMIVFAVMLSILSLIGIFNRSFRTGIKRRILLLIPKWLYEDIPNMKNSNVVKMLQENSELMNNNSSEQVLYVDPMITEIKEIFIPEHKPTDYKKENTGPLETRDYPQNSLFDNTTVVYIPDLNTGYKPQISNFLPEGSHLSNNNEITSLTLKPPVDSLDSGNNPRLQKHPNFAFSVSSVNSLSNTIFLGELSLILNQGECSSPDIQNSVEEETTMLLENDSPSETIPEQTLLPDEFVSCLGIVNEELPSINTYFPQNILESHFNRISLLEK
experiment notes: BRET displacement of TAMRA-labelled peptide, Nluc-IL23R membranes
*1 amine or outer side, *2 acyl side, *3 side chain or, on linkers, in order; H or OH if unused. Bridges are numbered along the chain shown (N, C = ends). [ ]: non-standard residue; d: D form. Lys(N3) = [N-]=[N+]=NCCCC[C@H](N)C(=O)O; 2Nal = N[C@@H](Cc1ccc2ccccc2c1)C(=O)O; AEF = NCCOc1ccc(C[C@H](N)C(=O)O)cc1; αMeL = CC(C)C[C@](C)(N)C(=O)O; CH2COCH2 = O=C(C[*:1])C[*:2]; 3Amb = NCc1cccc(C(=O)O)c1; Pra = C#CC[C@H](N)C(=O)O
readout label: pKi
Please note pKi is a logarithmic value: minus log10 of concentration in mol/L. Answer with that number alone.

Query: Fill blank: measured pKi of the binder Ac-DKSCWQC[2Nal][2Nal]LER-NH2 (lactam 2-11; linker 4-7 via CH2COCH2; SMILES CC(=O)N[C@@H](CC(=O)O)C(=O)N[C@H]1CCCCNC(=O)CC[C@@H](C(=O)N[C@@H](CCCNC(=N)N)C(N)=O)NC(=O)[C@H](CC(C)C)NC(=O)[C@H](Cc2ccc3ccccc3c2)NC(=O)[C@H](Cc2ccc3ccccc3c2)NC(=O)[C@@H]2CSCC(=O)CSC[C@H](NC(=O)[C@H](CO)NC1=O)C(=O)N[C@@H](Cc1c[nH]c3ccccc13)C(=O)N[C@@H](CCC(N)=O)C(=O)N2) [Compound 28] is ____.
Response: 8.34

Query: Fill blank: measured pKi of the binder Ac-KSCWQC[AEF][2Nal]LER-NH2 (lactam 1-10; disulfide 3-6) [Compound 54] is ____.
Response: 6.75

Query: Fill blank: measured pKi of the binder Ac-KSCWQC[AEF][2Nal][αMeL]ER-NH2 (lactam 1-10; linker 3-6 via CH2COCH2; SMILES CC(=O)N[C@H]1CCCCNC(=O)CC[C@@H](C(=O)N[C@@H](CCCNC(=N)N)C(N)=O)NC(=O)[C@](C)(CC(C)C)NC(=O)[C@H](Cc2ccc3ccccc3c2)NC(=O)[C@H](Cc2ccc(OCCN)cc2)NC(=O)[C@@H]2CSCC(=O)CSC[C@H](NC(=O)[C@H](CO)NC1=O)C(=O)N[C@@H](Cc1c[nH]c3ccccc13)C(=O)N[C@@H](CCC(N)=O)C(=O)N2) [Compound 47] is ____.
Response: 9.20

Query: Fill blank: measured pKi of the binder Ac-DKS[Lys(N3)]WQ[Pra]W[2Nal]LER-NH2 (lactam 2-11; triazole 4-7) [Compound 23] is ____.
Response: 6.93

Query: Fill blank: measured pKi of the binder [3Amb]SCWQCW[2Nal]LER-NH2 (lactam N-10; linker 3-6 via CH2COCH2) [Compound 37] is ____.
Response: 8.01

Query: Fill blank: measured pKi of the binder Ac-DESCWQCW[2Nal]LKR-NH2 (lactam 2-11; linker 4-7 via CH2COCH2) [Compound 17] is ____.
Response: 7.15

Query: Fill blank: measured pKi of the binder Ac-GCTCWECW[2Nal][αMeL]CR-NH2 (linker 2-11, 4-7 via CH2COCH2; SMILES CC(=O)NCC(=O)N[C@H]1CSCC(=O)CSC[C@@H](C(=O)N[C@@H](CCCNC(=N)N)C(N)=O)NC(=O)[C@](C)(CC(C)C)NC(=O)[C@H](Cc2ccc3ccccc3c2)NC(=O)[C@H](Cc2c[nH]c3ccccc23)NC(=O)[C@@H]2CSCC(=O)CSC[C@H](NC(=O)[C@H]([C@@H](C)O)NC1=O)C(=O)N[C@@H](Cc1c[nH]c3ccccc13)C(=O)N[C@@H](CCC(=O)O)C(=O)N2) [Compound 35] is ____.
Response: 7.39
